target: HIV-1 93IN905 envelope protein (Env) on pseudovirus (HIV-1 isolate 93IN905); assay: cell-based or functional assay
MEASURED PARAMETER: IC50 (µg/mL), pseudovirus neutralization

Below are worked cases with known answers.
Measured IC50 (µg/mL), pseudovirus neutralization of 1456_P20 (PG20) (antibody, human IgG1, kappa, V domains shown) VH: QVRLVQSGPEVKKPGSSVTVSCQASGGTFSSYAFTWVRQAPGQGLEWLGMVTPIFGEAKYSQRFEGRVTITADESTSTTSIELRGLTSEDTAIYYCARDRRAVPIATDNWLDPWGQGTLVTVSS VL: DIQLTQSPSSLSASVGDRVSITCRASQTINNYLNWYQQTPGKAPKLLIYGASNLQNGVPSRFSGSGSGTDFTLTISSLQPEDFATYYCQQSFSTPRTFGQGTRLDIKR : > 50 µg/mL

Reported IC50 (µg/mL), pseudovirus neutralization of 1460_G14 (PGG14) (antibody, human IgG1, kappa, V domains shown) VH: QVLLVQSGTEVKKPGSSVKVSCQASGGAFSSYAFSWVRQAPGQGLEWMGMITPVFGETKYAPRFQGRLTLTAEESLSTTYMELRSLTSDDTAFYYCTRDRRVVPMATDNWLDPWGQGTLVTVSS VL: DIQLTQSPSSLSASVGDRVTVTCRASQTIHTYLNWYQQIPGKAPKLLIYGASTLQSGVPSRFSGSGSGTDFTLTINSLQPEDFATYYCQQSYSTPRTFGQGTRLDIKR : > 50 µg/mL

The recorded IC50 (µg/mL), pseudovirus neutralization for entry 1443_C16 (PG16) (TCN-116) (antibody, V domains shown) VH: QEQLVESGGGVVQPGGSLRLSCLASGFTFHKYGMHWVRQAPGKGLEWVALISDDGMRKYHSDSMWGRVTISRDNSKNTLYLQFSSLKVEDTAMFFCAREAGGPIWHDDVKYYDFNDGYYNYHYMDVWGKGTTVTVSS VL: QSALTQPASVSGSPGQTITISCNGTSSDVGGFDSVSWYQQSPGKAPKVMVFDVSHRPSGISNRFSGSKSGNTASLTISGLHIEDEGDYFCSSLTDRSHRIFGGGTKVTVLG equals 0.1 µg/mL

Consider the additional binder presented here.
The binder listed as 1495_C14 (PGC14) (antibody, human IgG1, lambda, V domains shown) VH: DGHLVQSGVEVKKTGATVKISCKVSGYSFIDYYLHWVQRAPGKGLEWVGLIDPENGEARYAEKFQGRVTIIADTSIDTGYMEMRSLKSEDTAVYFCAAGAVGADSGSWFDPWGQGTLVTVSS VL: SYELTQPPSVSVSPGQTASITCSGSKLGDKYVSWYQLRPGQSPILVMYENDRRPSGIPERFSGSNSGDTATLTISGTQALDEADFYCQAWETTTTTFVFFGGGTQLTVLG shows IC50 (µg/mL), pseudovirus neutralization equal to > 50 µg/mL

src = patent US20200024330A1
